Biological target: SIK3 (Homo sapiens, UniProt Q9Y2K2)
Construct: purchased SignalChem S12-11G-100
Sequence (Q9Y2K2 whole entry): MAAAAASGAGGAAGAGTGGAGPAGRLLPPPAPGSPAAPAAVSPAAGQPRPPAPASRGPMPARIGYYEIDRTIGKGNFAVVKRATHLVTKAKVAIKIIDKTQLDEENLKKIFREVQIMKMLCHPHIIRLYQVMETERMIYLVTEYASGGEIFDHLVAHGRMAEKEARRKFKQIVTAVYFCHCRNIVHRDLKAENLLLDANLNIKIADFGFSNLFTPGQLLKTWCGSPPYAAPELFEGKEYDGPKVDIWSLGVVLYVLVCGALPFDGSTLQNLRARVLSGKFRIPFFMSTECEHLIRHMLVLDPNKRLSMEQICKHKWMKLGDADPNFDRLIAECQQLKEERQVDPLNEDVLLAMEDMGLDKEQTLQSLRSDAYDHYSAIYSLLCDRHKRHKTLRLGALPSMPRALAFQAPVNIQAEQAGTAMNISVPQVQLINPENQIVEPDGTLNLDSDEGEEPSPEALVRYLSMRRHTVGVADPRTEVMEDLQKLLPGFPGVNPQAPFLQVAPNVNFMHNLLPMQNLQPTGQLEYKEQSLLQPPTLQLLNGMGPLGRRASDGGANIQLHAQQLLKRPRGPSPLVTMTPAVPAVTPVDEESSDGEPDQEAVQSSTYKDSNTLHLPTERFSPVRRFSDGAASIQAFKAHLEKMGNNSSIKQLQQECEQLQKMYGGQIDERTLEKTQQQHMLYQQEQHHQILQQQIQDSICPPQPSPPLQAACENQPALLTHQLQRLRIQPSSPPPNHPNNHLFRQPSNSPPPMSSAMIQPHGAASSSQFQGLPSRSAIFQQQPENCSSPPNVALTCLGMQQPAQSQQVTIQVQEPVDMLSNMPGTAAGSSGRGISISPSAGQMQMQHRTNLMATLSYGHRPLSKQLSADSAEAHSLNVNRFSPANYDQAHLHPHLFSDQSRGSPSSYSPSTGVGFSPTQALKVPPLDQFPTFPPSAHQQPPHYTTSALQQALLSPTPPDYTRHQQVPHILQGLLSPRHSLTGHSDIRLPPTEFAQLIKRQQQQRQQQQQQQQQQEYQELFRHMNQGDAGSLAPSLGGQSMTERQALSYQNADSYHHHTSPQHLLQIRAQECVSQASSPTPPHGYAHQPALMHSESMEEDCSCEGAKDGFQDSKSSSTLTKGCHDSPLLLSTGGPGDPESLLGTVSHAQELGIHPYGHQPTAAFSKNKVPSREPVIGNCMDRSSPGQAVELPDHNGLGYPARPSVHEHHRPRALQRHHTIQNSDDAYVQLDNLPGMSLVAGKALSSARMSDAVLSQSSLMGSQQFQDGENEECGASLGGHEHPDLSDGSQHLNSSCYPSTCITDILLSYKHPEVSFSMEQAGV
Experiment: biochemical
Protocol: The principle of the ^33P radioactive kinase assay consists in measuring the incorporated ^33P into the substrate AMARA peptide when phosphorylated by SIK1, SIK2 or SIK3 using [^33P]-g-ATP, which correlates with kinase activity. […] After harvesting the kinase reactions, the filter plates are washed 6 times with phosphoric acid (75 mM). […] The top of the plates are sealed with TopSeal-A. Read-out is performed with a TopCount instrument (PerkinElmer Inc.).
measured property: IC50

Use the examples below as a reference point.
CCNC(=O)c1c(OC)cc(-n2cnc3cc(-c4cnn(C)c4)cnc32)cc1OC(F)F : 10 to 100 nM
COc1cc(-c2cnc3cc(-c4cnn(C)c4)ccn23)cc(OC)c1C(=O)NC(C(C)C)C(F)(F)F (stereo not shown) : 10 to 100 nM
CCNC(=O)c1c(OC)cc(-n2cnc3cc(-c4nnc(C)[nH]4)ccc32)cc1OC(F)F : > 500 nM

Continue with the next compound.
Task item: Request the reported IC50 associated with "COc1cc(-n2cnc3cc(-c4cnn(C)c4)ccc32)cc(OC)c1C(=O)N1CC2(C1)CS(=O)(=O)C2"
Reply: 100 to 500 nM

---

Biological target: SIK1 (Homo sapiens, UniProt P57059)
Construct: purchased Carna Biosciences 02-131
Sequence (P57059 whole entry): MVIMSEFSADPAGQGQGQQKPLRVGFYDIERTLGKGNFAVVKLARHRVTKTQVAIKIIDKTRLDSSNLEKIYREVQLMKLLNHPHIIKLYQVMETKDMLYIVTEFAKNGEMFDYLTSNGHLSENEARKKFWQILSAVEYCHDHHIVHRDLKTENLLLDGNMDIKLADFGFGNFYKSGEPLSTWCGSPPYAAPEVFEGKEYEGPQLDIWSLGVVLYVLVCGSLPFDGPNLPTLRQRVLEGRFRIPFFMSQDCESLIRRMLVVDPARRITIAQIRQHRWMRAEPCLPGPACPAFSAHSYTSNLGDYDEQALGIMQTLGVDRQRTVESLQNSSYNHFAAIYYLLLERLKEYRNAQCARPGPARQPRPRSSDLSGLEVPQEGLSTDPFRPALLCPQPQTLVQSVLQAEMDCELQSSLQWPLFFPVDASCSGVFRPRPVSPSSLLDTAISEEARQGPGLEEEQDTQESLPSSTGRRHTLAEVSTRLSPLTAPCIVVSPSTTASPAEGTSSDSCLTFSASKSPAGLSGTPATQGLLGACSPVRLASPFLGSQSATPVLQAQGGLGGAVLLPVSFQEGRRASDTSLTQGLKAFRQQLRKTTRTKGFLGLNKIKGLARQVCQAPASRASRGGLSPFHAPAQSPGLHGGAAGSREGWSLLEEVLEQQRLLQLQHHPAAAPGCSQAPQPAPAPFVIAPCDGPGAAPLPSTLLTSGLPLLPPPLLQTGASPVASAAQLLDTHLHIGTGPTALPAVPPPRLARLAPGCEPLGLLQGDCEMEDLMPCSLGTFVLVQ
Assay: biochemical
pIC50: −log10 of the molar value.
measured property: pIC50

Task item: # value lookup — system SIK1 (Homo sapiens, UniProt P57059), readout pIC50, item COc1cc(-n2cnc3cc(-c4cnn(C(C)C)c4)ccc32)cc(OC)c1C(=O)NCC(F)(F)F [compound 95]
Reply: 7.00 to 8.00

---

Biological target: SIK1 (Homo sapiens)
Construct: purchased Carna Biosciences 02-131
Experiment: biochemical
Conditions: ADP-Glo SIK kinase assay
pIC50: −log10 of the molar value.
Let's look at some compounds and their measured pIC50.

CNc1cc(-c2cnc3cc(-c4cnn(C)c4)ccn23)cc(OC)c1C(=O)NCC(F)(F)F : 8.00 to 11.00
COCCOc1cc(-c2cnc3cc(-c4cnn(C)c4)ccn23)cc(OC)c1C(=O)NC1CC1 : 7.00 to 8.00
COc1cc(-c2cnc3cc(-c4cnn(C)c4)c(OCC(=O)O)cn23)cc(OC(F)F)c1C(=O)NC1CC1 : 7.00 to 8.00

Task item: # value lookup — system SIK1 (Homo sapiens), readout pIC50, item "COc1cc(-n2cnc3cc(-c4cnn(C)c4)ccc32)cc(OC)c1C(=O)N1CC(F)(F)C1"
Reply: 7.00 to 8.00

---

Molecular target: SIK1 (Homo sapiens, UniProt P57059)
Construct: purchased Carna Biosciences 02-131
Assay: biochemical
Settings: ADP-Glo SIK kinase assay
Let's look at some compounds and their measured IC50.

Use the examples below as a reference point.
COc1cc(-c2cnc3cc(-c4cnn(C)c4)c(OCc4ccccc4)cn23)cc(OC(F)F)c1C(=O)NC1CC1 : 10 to 100 nM
COc1cc(-c2cnc3cc(-c4cnn(C)c4)ccn23)cc(OC)c1C(=O)N1CC(C(F)(F)F)C1 : 0.01 to 10 nM
COc1cc(-c2cnc3cc(-c4ccc(C(F)(F)F)nn4)ccn23)cc(OC(F)F)c1C(=O)NC1CC1 : 10 to 100 nM
COc1cc(-n2cnc3cc(-c4cn[nH]c4)ccc32)cc(OC(F)F)c1C(=O)NC1CC1 : 0.01 to 10 nM
COc1cc(-c2cnc3cc(-c4ccc(C#N)nn4)ccn23)cc(OC(F)F)c1C(=O)NC1CC1 : 0.01 to 10 nM
CCOC(=O)C(C)Cn1cc(-c2ccn3c(-c4cc(OC)c(C(=O)NCC(F)(F)F)c(OC)c4)cnc3c2)cn1 (stereo not shown) : 0.01 to 10 nM

Task item: Request the reported IC50 associated with "Cn1cc(-c2ccn3c(-c4cc(F)c(C(=O)NCC(F)(F)F)c(F)c4)cnc3c2)cn1"
Reply: 100 to 500 nM
